Numbers sourced from patent US20220332795A1.

Measured On: T1, recombinant biotinylated human CD71 extracellular domain (human, UniProt P02786 89-760, biotinylated)
T1 construct: extracellular domain; also called hCD71; huCD71 ECD
Protocol Details: solution ELISA
Measurement Type: hCD71, RLU (RLU)

SEQ ID NO 151 (designed binder, FN3 domain) MLPAPKNLVVSRVTEDSARLSWTAPDAAFDSFFIGYLEPQPPGEAIQLWVPGSERSYDLTGLKPGTEYNVTIQGVKGGFPSRPLQAHFTT	1.23e+06

A: SEQ ID NO 136 (designed binder, FN3 domain) MLPAPKNLVVSRVTEDSARLSWTAPDAAFDSFFIGYLEPQPPGEAIWLHVPGSERSYDLTGLKPGTEYNVTIQGVKGGFPSIPLIAIFTT
B: SEQ ID NO 148 (designed binder, FN3 domain) MLPAPKNLVVSRVTEDSARLSWTAPDAAFDSFYIAYAEPRPDGEAIALHVPGSERSYDLTGLKPGTEYSVLIHGVKGGLLSSPLRAVFTT
C: SEQ ID NO 185 (designed binder, FN3 domain) MLPAPKNLVVSRVTEDSARLSWTAPDAAFDSFYIAYAEPRPDGEAIYLGVPGSERSYDLTGLKPGTEYSVLIHGVKGGLLSSPLRAKFTT
Query: // ascending sort on recorded hCD71, RLU Reply with the item labels sorted in the order that was asked for.
Reply: B, C, A
